tested on: SNB-75; assay: Growth inhibition of human SNB75 cells after 48 hrs by SRB assay; type: functional; conditions: SNB-75, 48 h, read-out: pTGI (converted)
So I've got a bunch of compounds here, and I need their TGI values.
One number for each entry, in µM.

- compound: "CCN(CC)c1ccc(C2CC(c3cc(OC)c(OC)c(OC)c3)=NN2)cc1 (configuration not stated)"
  unit_symbol: "µM"
  TGI: 0.631
- compound: "COc1ccc(/C=C\\c2cc(OC)c(OC)c(OC)c2)cc1O"
  unit_symbol: "µM"
  TGI: 25.1

Moving on to the next compound.
Retrieve TGI measured for CCN(CC)c1ccc(C2=NN(C(C)=O)C(c3cc(OC)c(OC)c(OC)c3)C2)cc1 (configuration not stated) and print it.
0.631

* * *

test system: SK-MEL-5; assay: Growth inhibition of human SK-MEL-5 cells after 48 hrs by SRB assay; assay type: functional; conditions: SK-MEL-5, 48 h, read-out: pTGI (converted)
// Not satisfied strictly below 5 µM in TGI; Satisfied otherwise

- molecule: "COc1cc(C2=NN(C(C)=O)C(c3cc(OC)c(OC)c(OC)c3)C2)ccc1O (centres undefined)"
  tested_system: "SK-MEL-5"
  answer_label: "Not satisfied"

Decide: TGI of COc1cc(C2CC(c3cccc(Br)c3)=NN2C(C)=O)cc(OC)c1OC (centres undefined) >= 5 µM?
Satisfied

Decide: TGI of CCN(CC)c1ccc(C2CC(c3cc(OC)c(OC)c(OC)c3)=NN2)cc1 (centres undefined) >= 5 µM?
Not satisfied

* * *

system: IGROV-1; assay: Growth inhibition of human IGROV1 cells after 48 hrs by SRB assay; format: functional; conditions: IGROV-1, 48 h
So I've got a bunch of molecules here, and I need their GI50 values.
Numbers only, in nM.

- molecule: "COc1cc(C2=NN(C(C)=O)C(c3cc(OC)c(OC)c(OC)c3)C2)ccc1O (stereo not given)"
  tested_system: "IGROV-1"
  GI50 / nM: 501

Each of the following entries comes with a recorded value; kindly state GI50 for each.
1. CCN(CC)c1ccc(C2CC(c3cc(OC)c(OC)c(OC)c3)=NN2)cc1 (stereo not given)
2. COc1cc(C2CC(c3cccc(O)c3)=NN2C(C)=O)cc(OC)c1OC (stereo not given)
3. COc1cc(C2=NNC(c3ccc(N(C)C)cc3)C2)cc(OC)c1OC (stereo not given)

316
3980
501

Report the value of GI50 obtained on IGROV-1 for COc1ccc(/C=C\c2cc(OC)c(OC)c(OC)c2)cc1O [COMBRETASTATIN A4] .
63.1

* * *

So I've got a bunch of compounds here, and I need their TGI values.
system: SK-MEL-28; test: Growth inhibition of human SK-MEL-28 cells after 48 hrs by SRB assay; assay type: functional; settings: SK-MEL-28, 48 h, read-out: pTGI (converted)

Each of the following entries comes with a recorded value; kindly state TGI for each.
1. COc1ccc(/C=C\c2cc(OC)c(OC)c(OC)c2)cc1O
2. COc1cc(C2=NNC(c3ccc(N(C)C)cc3)C2)cc(OC)c1OC (stereo not drawn)
3. COc1cc(C2CC(c3ccc(N(C)C)cc3)=NN2C(C)=O)cc(OC)c1OC (stereo not drawn)
4. COc1ccc(C2CC(c3cc(OC)c(OC)c(OC)c3)=NN2)cc1 (stereo not drawn)

1: 50.1 µM; 2: > 100 µM; 3: > 100 µM; 4: > 100 µM

Each of the following entries comes with a recorded value; kindly state TGI for each.
1. COc1cc(C2CC(c3cccc(Br)c3)=NN2C(C)=O)cc(OC)c1OC (stereo not drawn)
2. CCN(CC)c1ccc(C2=NN(C(C)=O)C(c3cc(OC)c(OC)c(OC)c3)C2)cc1 (stereo not drawn)
3. COc1cc(C2CC(c3cccc(O)c3)=NN2C(C)=O)cc(OC)c1OC (stereo not drawn)
4. COc1cc(C2=NN(C(C)=O)C(c3cc(OC)c(OC)c(OC)c3)C2)ccc1O (stereo not drawn)

1. 63.1 µM
2. 20 µM
3. > 100 µM
4. > 100 µM

* * *

tested on: Malme-3M; assay: Growth inhibition of human MALME-3M cells after 48 hrs by SRB assay; format: functional
API: label(entry) gives true if the entry's GI50 is strictly smaller than 8 µM; on equality or larger values it gives false.

Some solved entries appear below for comparison.
- molecule: "COc1ccc(C2CC(c3cc(OC)c(OC)c(OC)c3)=NN2)cc1 (configuration not stated)"
  tested_system: "Malme-3M"
  answer_label: "false"
- molecule: "COc1cc(C2CC(c3cccc(O)c3)=NN2C(C)=O)cc(OC)c1OC (configuration not stated)"
  tested_system: "Malme-3M"
  answer_label: "true"
- molecule: "CCN(CC)c1ccc(C2CC(c3cc(OC)c(OC)c(OC)c3)=NN2)cc1 (configuration not stated)"
  tested_system: "Malme-3M"
  answer_label: "false"
- molecule: "COc1cc(C2CC(c3ccc(N(C)C)cc3)=NN2C(C)=O)cc(OC)c1OC (configuration not stated)"
  tested_system: "Malme-3M"
  answer_label: "false"
- molecule: "CCN(CC)c1ccc(C2=NN(C(C)=O)C(c3cc(OC)c(OC)c(OC)c3)C2)cc1 (configuration not stated)"
  tested_system: "Malme-3M"
  answer_label: "true"

Check if GI50 falls below 8 µM for COc1ccc(/C=C\c2cc(OC)c(OC)c(OC)c2)cc1O .
true

* * *

So I've got a bunch of molecules here, and I need their GI50 values.
tested on: SF-295; assay: Growth inhibition of human SF295 cells after 48 hrs by SRB assay; format: functional; details: SF-295, 48 h
Answer with the value and then the unit.

Completed entries (count: 4):
- molecule: "COc1cc(C2CC(c3cccc(Br)c3)=NN2C(C)=O)cc(OC)c1OC (stereo not given)"
  GI50: "0.2 µM"
- molecule: "CCN(CC)c1ccc(C2=NN(C(C)=O)C(c3cc(OC)c(OC)c(OC)c3)C2)cc1 (stereo not given)"
  GI50: "0.2 µM"
- molecule: "COc1cc(C2=NN(C(C)=O)C(c3cc(OC)c(OC)c(OC)c3)C2)ccc1O (stereo not given)"
  GI50: "0.2 µM"
- molecule: "COc1cc(C2CC(c3cccc(O)c3)=NN2C(C)=O)cc(OC)c1OC (stereo not given)"
  GI50: "0.316 µM"

Report the value of GI50 obtained on SF-295 for COc1ccc(C2CC(c3cc(OC)c(OC)c(OC)c3)=NN2)cc1 (stereo not given) .
5.01 µM

* * *

test system: CAKI-1; test: Growth inhibition of human Caki1 cells after 48 hrs by SRB assay; format: functional; conditions: CAKI-1, 48 h, read-out: pTGI (converted)
So I've got a bunch of compounds here, and I need their TGI values.

Completed entries (count: 5):
- compound: "COc1cc(C2CC(c3cccc(Br)c3)=NN2C(C)=O)cc(OC)c1OC (centres undefined)"
  assay_value: "39.8 µM"
- compound: "COc1ccc(C2CC(c3cc(OC)c(OC)c(OC)c3)=NN2)cc1 (centres undefined)"
  assay_value: "63.1 µM"
- compound: "COc1cc(C2CC(c3ccc(N(C)C)cc3)=NN2C(C)=O)cc(OC)c1OC (centres undefined)"
  assay_value: "> 100 µM"
- compound: "COc1ccc(/C=C\\c2cc(OC)c(OC)c(OC)c2)cc1O [COMBRETASTATIN A4]"
  assay_value: "15.8 µM"
- compound: "CCN(CC)c1ccc(C2CC(c3cc(OC)c(OC)c(OC)c3)=NN2)cc1 (centres undefined)"
  assay_value: "0.794 µM"

Each of the following entries comes with a recorded value; kindly state TGI for each.
1. CCN(CC)c1ccc(C2=NN(C(C)=O)C(c3cc(OC)c(OC)c(OC)c3)C2)cc1 (centres undefined)
2. COc1cc(C2=NNC(c3ccc(N(C)C)cc3)C2)cc(OC)c1OC (centres undefined)
3. COc1cc(C2=NN(C(C)=O)C(c3cc(OC)c(OC)c(OC)c3)C2)ccc1O (centres undefined)
4. COc1cc(C2CC(c3cccc(O)c3)=NN2C(C)=O)cc(OC)c1OC (centres undefined)

["20 µM", "> 100 µM", "> 100 µM", "> 100 µM"]

* * *

So I've got a bunch of compounds here, and I need their TGI values.
tested on: MDA-MB-468; assay: Growth inhibition of human MDA-MB-468 cells after 48 hrs by SRB assay; format: functional; conditions: MDA-MB-468, 48 h, read-out: pTGI (converted)

- compound: "COc1cc(C2CC(c3ccc(N(C)C)cc3)=NN2C(C)=O)cc(OC)c1OC (stereo unspecified)"
  assay_value: "> 100 µM"
- compound: "COc1cc(C2CC(c3cccc(Br)c3)=NN2C(C)=O)cc(OC)c1OC (stereo unspecified)"
  assay_value: "> 100 µM"
- compound: "COc1cc(C2=NN(C(C)=O)C(c3cc(OC)c(OC)c(OC)c3)C2)ccc1O (stereo unspecified)"
  assay_value: "0.794 µM"
- compound: "COc1cc(C2CC(c3cccc(O)c3)=NN2C(C)=O)cc(OC)c1OC (stereo unspecified)"
  assay_value: "10 µM"
- compound: "COc1ccc(C2CC(c3cc(OC)c(OC)c(OC)c3)=NN2)cc1 (stereo unspecified)"
  assay_value: "63.1 µM"

Moving on to the next compound.
Report the value of TGI obtained on MDA-MB-468 for CCN(CC)c1ccc(C2=NN(C(C)=O)C(c3cc(OC)c(OC)c(OC)c3)C2)cc1 (stereo unspecified) .
0.631 µM
